target: Ataxin-2 (Homo sapiens) (UniProt Q99700); assay: qHTS for Inhibitors of ATXN expression.; type: functional
Sequence (Q99700 whole entry): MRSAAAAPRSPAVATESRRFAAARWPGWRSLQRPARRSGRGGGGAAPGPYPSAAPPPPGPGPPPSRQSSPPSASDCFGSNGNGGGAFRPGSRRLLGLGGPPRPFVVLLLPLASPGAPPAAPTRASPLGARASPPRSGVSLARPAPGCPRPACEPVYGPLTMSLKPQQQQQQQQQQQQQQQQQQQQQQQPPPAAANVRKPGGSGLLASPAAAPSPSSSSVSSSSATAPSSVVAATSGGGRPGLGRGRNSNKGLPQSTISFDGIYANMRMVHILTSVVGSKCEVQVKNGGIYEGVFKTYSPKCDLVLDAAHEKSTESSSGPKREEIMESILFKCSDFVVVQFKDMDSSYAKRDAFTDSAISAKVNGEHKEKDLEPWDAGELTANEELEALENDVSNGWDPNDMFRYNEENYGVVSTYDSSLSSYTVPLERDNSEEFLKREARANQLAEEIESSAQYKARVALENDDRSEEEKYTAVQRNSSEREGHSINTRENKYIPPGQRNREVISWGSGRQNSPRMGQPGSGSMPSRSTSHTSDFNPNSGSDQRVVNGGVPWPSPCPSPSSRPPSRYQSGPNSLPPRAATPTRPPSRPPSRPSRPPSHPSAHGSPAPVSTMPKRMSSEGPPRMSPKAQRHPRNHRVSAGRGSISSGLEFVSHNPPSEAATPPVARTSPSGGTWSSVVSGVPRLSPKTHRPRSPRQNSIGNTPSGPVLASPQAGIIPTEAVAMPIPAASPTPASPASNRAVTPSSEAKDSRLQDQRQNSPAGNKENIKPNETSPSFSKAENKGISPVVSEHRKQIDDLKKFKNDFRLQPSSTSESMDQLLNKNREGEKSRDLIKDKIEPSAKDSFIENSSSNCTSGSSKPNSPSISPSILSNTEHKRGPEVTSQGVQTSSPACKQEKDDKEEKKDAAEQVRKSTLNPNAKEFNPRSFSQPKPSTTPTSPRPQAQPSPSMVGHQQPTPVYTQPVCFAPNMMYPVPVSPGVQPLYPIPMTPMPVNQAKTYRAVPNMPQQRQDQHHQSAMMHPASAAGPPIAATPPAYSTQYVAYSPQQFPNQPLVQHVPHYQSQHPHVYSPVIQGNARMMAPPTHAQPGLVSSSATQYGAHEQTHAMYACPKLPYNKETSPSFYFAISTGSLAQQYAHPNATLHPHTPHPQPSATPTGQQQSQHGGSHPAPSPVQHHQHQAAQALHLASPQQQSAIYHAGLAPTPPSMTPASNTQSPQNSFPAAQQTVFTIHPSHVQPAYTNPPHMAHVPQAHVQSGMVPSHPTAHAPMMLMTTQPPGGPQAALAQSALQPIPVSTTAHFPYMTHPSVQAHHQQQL
Hit rate of the full screen: of about 400,000 compounds, about 2,100 (0.53%) were called active. Inconclusive results (about 14%) are left out. No rule for the calls is given here. This excerpt belongs to a sample that is enriched for actives.
Outcomes: active, inactive

# compound, system-tested, assigned-label
data = [
    ("Cc1ccc(S(=O)(=O)Nc2nc3n(n2)C(c2ccc(F)cc2)C=C(c2ccccc2)N3)cc1 (stereo unspecified)", "Ataxin-2 (Homo sapiens) (UniProt Q99700)", "inactive"),
    ("CCCCCCn1c(=O)n2n(c1=O)[C@@H]1CN(S(=O)(=O)c3ccc(C)cc3)C[C@]1(O)[C@@H](OC(=O)NC1CCCC1)C2", "Ataxin-2 (Homo sapiens) (UniProt Q99700)", "active"),
    ("CC(C)c1c(C(=O)N/N=C/c2ccco2)nnn1-c1nonc1N", "Ataxin-2 (Homo sapiens) (UniProt Q99700)", "inactive"),
    ("CCOc1ccc2nc3ncccc3c(O)c2c1", "Ataxin-2 (Homo sapiens) (UniProt Q99700)", "inactive"),
    ("CCN(CC)C(=O)c1ccc2c3c(cccc13)C(=O)N(CCc1ccc(OC)c(OC)c1)C2=O", "Ataxin-2 (Homo sapiens) (UniProt Q99700)", "active"),
    ("COc1cc(/C=C/C(=O)O)ccc1OS(=O)(=O)c1cc(C)ccc1C", "Ataxin-2 (Homo sapiens) (UniProt Q99700)", "inactive"),
]

* * *

target: Ataxin-2 (Homo sapiens) (UniProt Q99700); experiment: qHTS for Inhibitors of ATXN expression.; format: functional
Screen size: about 400,000 compounds; about 2,100 (0.53%) were called active. About 14% were inconclusive and are not listed. No rule for the calls is given here. This is one part of a sample in which actives are shown more often than they occur.
Outcomes: 1 for active, -1 for inactive

# molecule, assigned-label
data = [
    ("Cc1ccc2nc3c(cc(C(=O)NC4CCCC4)c(=N)n3C(C)C)c(=O)n2c1", -1),
    ("Cc1noc(C)c1COc1ccc(C(=O)OCC(=O)Nc2ccc(S(N)(=O)=O)cc2)cc1", -1),
    ("O=C(Oc1ccc(Cl)c2cccnc12)c1cccnc1", -1),
    ("NC(=O)c1ccc(NC(=O)COC(=O)c2c3c(nc4ccccc24)/C(=C\\c2ccc4c(c2)OCO4)CCC3)cc1", -1),
    ("COc1cc(/C=N/Nc2ccc([N+](=O)[O-])cc2S(=O)(=O)N2CCOCC2)cc(OC)c1OC", -1),
    ("Cc1cccc(COC[C@H](CC(C)C)N2CCN(C(=O)c3ccc(C(F)(F)F)cc3)CCC2=O)c1", 1),
    ("Cc1ccc2c(CNCc3ccc(C)o3)c(C(=O)O)n(Cc3ccc(F)cc3)c2c1", 1),
    ("COc1ccc(CNCc2c(O)c(Cl)cc3c(C)c(C)c(=O)oc23)c(OC)c1", -1),
    ("Nc1nc(-c2sc3nc4c(cc3c2N)CCCC4)nc(N2CCOCC2)n1", -1),
    ("CC1(C)CCCN(C(=O)c2ccc3c(c2NCCO)C(=O)c2ccccc2C3=O)C1", 1),
    ("CCc1cccc2c1Sc1ccccc1CC2N1CCNCC1 (stereo unspecified)", 1),
]

* * *

target: Ataxin-2 (Homo sapiens); experiment: qHTS for Inhibitors of ATXN expression.; assay type: functional
Out of some 400,000 compounds screened, about 2,100 (0.53%) were called active. Roughly 14% stayed inconclusive and do not appear here. How the calls were made is not given here. This excerpt belongs to a sample that is enriched for actives.
Outcomes: True = active, False = inactive

# compound, assigned-label
data = [
    ("COc1ccc(C2CC(c3ccccc3)=NN2c2ccc(Cl)c(C(=O)O)c2)cc1 (stereo not drawn)", "False"),
    ("CCN/N=C(\\Cc1nc2ccccc2[nH]1)c1ccccc1", "False"),
    ("Cc1ccc(C)c(N(C)S(=O)(=O)c2ccc3[nH]cc(C(=O)NC4CCCC4)c(=O)c3c2)c1", "True"),
    ("Cc1nc(N2N=C(c3ccc(Cl)cc3)CC2c2ccco2)sc1C(=O)N(C)C (stereo not drawn)", "False"),
    ("CCOC(=O)c1cc2c(=O)n3ccccc3nc2n(C(C)C)/c1=N/C(=O)C(C)(C)Oc1ccc(Cl)cc1", "False"),
    ("CCn1cc([N+](=O)[O-])c(C(=O)N2N=C(c3ccc(Cl)c(Cl)c3)CC2c2ccccc2O)n1 (stereo not drawn)", "True"),
    ("COCCNc1nc(NCc2ccc(C(C)C)cc2)c2sccc2n1", "True"),
    ("O=C(Nc1ccccc1)Nc1ccc2ncoc2c1", "False"),
    ("COc1cccc(CNc2nc(NCc3cccs3)nc3ccsc23)c1", "True"),
    ("Cc1nc2c(c(C)nn2-c2ccccc2)c(C)c1C", "False"),
    ("O=[N+]([O-])c1ccc(C2=NN(c3ccccc3)C(c3ccco3)C2)cc1 (stereo not drawn)", "False"),
    ("Cc1ccsc1CN(C)CC(=O)NCC(=O)Nc1ccc(F)cc1", "False"),
    ("COc1cccc(CNC(=O)Cc2csc(Nc3nc(S)nc4ccccc34)n2)c1", "False"),
]

* * *

target: Ataxin-2 (Homo sapiens); experiment: qHTS for Inhibitors of ATXN expression.; assay type: functional
The campaign covered roughly 400,000 compounds. About 2,100 (0.53%) were called active. About 14% were inconclusive and are not listed. No rule for the calls is given here. For the sample, actives were picked, then their nearest neighbours and some compounds at random.
Outcomes: TRUE for active, FALSE for inactive

# chem-smiles, system-tested, assigned-label
rows = [
    ("COc1ccc(-c2cc3nc(C)c(CCC(=O)NCc4ccc(F)cc4)c(C)n3n2)c(OC)c1", "Ataxin-2 (Homo sapiens)", "FALSE"),
    ("COc1ccccc1-c1cc(C(F)(F)F)nc(S(=O)(=O)CCCC(=O)NCc2ccc(F)cc2)n1", "Ataxin-2 (Homo sapiens)", "TRUE"),
    ("O=C(O)c1ccc(CN2C(=O)c3cccc4c([N+](=O)[O-])ccc(c34)C2=O)cc1", "Ataxin-2 (Homo sapiens)", "FALSE"),
    ("COc1cc2nc(NC(=O)c3ccc(S(=O)(=O)N4CCCC4)cc3)sc2cc1OC", "Ataxin-2 (Homo sapiens)", "FALSE"),
]

* * *

molecular target: Ataxin-2 (Homo sapiens) (UniProt Q99700); assay: qHTS for Inhibitors of ATXN expression.; assay type: functional
Out of some 400,000 compounds screened, about 2,100 (0.53%) were called active. About 14% were inconclusive and are not listed. The rule behind the calls is not given here. Only a selection was taken, and actives are over-represented in it overall.
Outcomes: label 1 (active), label 0 (inactive)

# compound, system-tested, assigned-label
data = [
    ("COc1ccc2c(c1)C(=NN)c1cc(OC)ccc1-2", "Ataxin-2 (Homo sapiens) (UniProt Q99700)", "label 1"),
    ("CC1=CC(C)(C)Nc2ccc(OC(=O)C(C)N3C(=O)c4ccccc4C3=O)cc21 (stereo unspecified)", "Ataxin-2 (Homo sapiens) (UniProt Q99700)", "label 1"),
    ("CCOC(=O)Cc1c(C)c2ccc(N(CC)CC)cc2oc1=O", "Ataxin-2 (Homo sapiens) (UniProt Q99700)", "label 0"),
    ("Cc1ccc(NC(=O)CSCC(=O)OCc2cc(=O)oc3cc(O)ccc23)c(C)c1", "Ataxin-2 (Homo sapiens) (UniProt Q99700)", "label 0"),
    ("O=[N+]([O-])c1cccc(S(=O)(=O)NCC2CC3CCC2C3)c1 (stereo unspecified)", "Ataxin-2 (Homo sapiens) (UniProt Q99700)", "label 0"),
    ("CC1=CC(C)(C)Nc2ccc(OC(=O)CCN3C(=O)c4ccccc4C3=O)cc21", "Ataxin-2 (Homo sapiens) (UniProt Q99700)", "label 1"),
    ("O=c1cc(N2CCCCC2)c(-c2ccccc2)nn1Cc1ccccc1", "Ataxin-2 (Homo sapiens) (UniProt Q99700)", "label 0"),
    ("COc1ccc(C(=O)N2C(=O)c3ccc(N)cc3C2=O)cc1", "Ataxin-2 (Homo sapiens) (UniProt Q99700)", "label 0"),
    ("Cc1ccc(NC(=O)CSc2nc3ccccc3c(=O)n2CCCC(=O)NCCCN2CCOCC2)cc1", "Ataxin-2 (Homo sapiens) (UniProt Q99700)", "label 0"),
    ("CCS(=O)(=O)N1CCC(NC(=O)C(Cc2ccc(OC)c(OC)c2)NC(C)=O)CC1 (stereo unspecified)", "Ataxin-2 (Homo sapiens) (UniProt Q99700)", "label 0"),
    ("c1ccc(-c2cc(-c3ccc(N4CCOCC4)cc3)nc3ccccc23)cc1", "Ataxin-2 (Homo sapiens) (UniProt Q99700)", "label 0"),
    ("COc1ccc2nc(O)c(C(=O)O)cc2c1", "Ataxin-2 (Homo sapiens) (UniProt Q99700)", "label 0"),
    ("O=C(O)c1ccc(N2N=C(c3ccccc3)CC2c2ccccc2)cc1 (stereo unspecified)", "Ataxin-2 (Homo sapiens) (UniProt Q99700)", "label 0"),
    ("CC(C)c1cc(NCc2ccccn2)n2c(nc3ccccc32)c1C#N", "Ataxin-2 (Homo sapiens) (UniProt Q99700)", "label 0"),
    ("CN1CCN(/C=N/c2nc3ccccc3nc2N2CCCC2)CC1", "Ataxin-2 (Homo sapiens) (UniProt Q99700)", "label 0"),
    ("COc1ccc(C(=O)CC(SCC(NC(C)=O)C(=O)O)c2ccc(Cl)cc2)cc1OC (stereo unspecified)", "Ataxin-2 (Homo sapiens) (UniProt Q99700)", "label 1"),
    ("C=CC[C@H](CC(=O)N[C@H](CO)Cc1ccccc1)C(=O)N[C@@H](COC(=O)[C@@H](CC=C)CC(=O)OC(C)(C)C)Cc1c[nH]c2ccccc12", "Ataxin-2 (Homo sapiens) (UniProt Q99700)", "label 1"),
    ("Cc1nn2c(NC(C)C)c3c(nc2c1-c1ccccc1)CCC3", "Ataxin-2 (Homo sapiens) (UniProt Q99700)", "label 0"),
    ("Nc1ccc(-c2c3ccccc3nc3ccccc23)cc1", "Ataxin-2 (Homo sapiens) (UniProt Q99700)", "label 0"),
    ("Cc1ccc(S(=O)(=O)N[C@@H](Cc2ccccc2)C(=O)N2CCC[C@@H]2C(=O)O)cc1", "Ataxin-2 (Homo sapiens) (UniProt Q99700)", "label 0"),
    ("Cc1cc(O)nc2c1c(-c1ccccc1)nn2C", "Ataxin-2 (Homo sapiens) (UniProt Q99700)", "label 0"),
    ("C#CCOc1c(Cl)cc(C2C3=C(CCCC3=O)N(CC(=O)O)C3=C2C(=O)CCC3)cc1OC", "Ataxin-2 (Homo sapiens) (UniProt Q99700)", "label 0"),
    ("CCOC(=O)C1(Cc2ccccc2C(F)(F)F)CCN(CC(O)CO)CC1 (stereo unspecified)", "Ataxin-2 (Homo sapiens) (UniProt Q99700)", "label 0"),
    ("Cn1cccc1C1C=C(c2ccc(C(C)(C)C)cc2)Nc2ncnn21 (stereo unspecified)", "Ataxin-2 (Homo sapiens) (UniProt Q99700)", "label 0"),
    ("COc1ccc(Cl)cc1C(=O)NNC(=O)c1[nH]nc2ccccc12", "Ataxin-2 (Homo sapiens) (UniProt Q99700)", "label 0"),
    ("O=S(=O)(NCc1ccccc1)c1ccc(S(=O)(=O)N2CCCC2)cc1", "Ataxin-2 (Homo sapiens) (UniProt Q99700)", "label 0"),
    ("Clc1ccc(/C=C\\c2[nH]ccc3c4ccccc4nc2-3)cc1", "Ataxin-2 (Homo sapiens) (UniProt Q99700)", "label 0"),
    ("Cc1ccc(S(=O)(=O)N2CC3(O)CN(C(=O)OC(C)C)N(C(=O)OC(C)C)CC3(OC(=O)NCc3ccccc3)C2)cc1 (stereo unspecified)", "Ataxin-2 (Homo sapiens) (UniProt Q99700)", "label 1"),
    ("CCc1ccc2c(c1)/C(=C/C(=O)c1cccs1)C(=O)N2", "Ataxin-2 (Homo sapiens) (UniProt Q99700)", "label 1"),
    ("CCCn1/c(=N\\C(C)=O)c(C(=O)OCC)cc2c(=O)n3ccccc3nc21", "Ataxin-2 (Homo sapiens) (UniProt Q99700)", "label 0"),
    ("C=CC[C@@H](CC(=O)N[C@@H](CO)Cc1ccccc1)C(=O)N[C@H](COC(=O)[C@H](CC=C)CC(=O)OC(C)(C)C)Cc1c[nH]c2ccccc12", "Ataxin-2 (Homo sapiens) (UniProt Q99700)", "label 1"),
]
